assay: Protein binding in rat plasma; type: ADME, cell-free; details: read-out: PPB (converted)

smiles.representation	fraction unbound
O=C(c1cccn2cncc12)N1CCC(F)(F)[C@@H](Oc2ccc3ccccc3n2)C1	0.08
O=C(c1nccc2[nH]cnc12)N1CCC(F)(F)[C@@H](Oc2ccc3ccccc3n2)C1	0.17

* * *

target: Orexin receptor type 2 (Rattus norvegicus, UniProt P56719)
Sequence (P56719 whole entry): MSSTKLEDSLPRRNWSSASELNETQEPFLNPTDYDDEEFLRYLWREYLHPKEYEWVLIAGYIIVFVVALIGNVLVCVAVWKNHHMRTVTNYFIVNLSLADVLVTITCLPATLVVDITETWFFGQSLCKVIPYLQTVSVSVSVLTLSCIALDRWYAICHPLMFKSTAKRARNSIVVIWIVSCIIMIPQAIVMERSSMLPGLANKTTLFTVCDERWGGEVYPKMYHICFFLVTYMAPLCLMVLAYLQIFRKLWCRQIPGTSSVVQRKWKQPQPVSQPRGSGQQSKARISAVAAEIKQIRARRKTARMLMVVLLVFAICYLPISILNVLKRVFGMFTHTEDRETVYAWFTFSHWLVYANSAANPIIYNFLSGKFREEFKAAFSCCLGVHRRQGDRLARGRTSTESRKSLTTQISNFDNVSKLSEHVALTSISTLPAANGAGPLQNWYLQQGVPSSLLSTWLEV
pIC50: −log10 of the molar value.
experimental.endpoint: pIC50

smiles.representation	tgt	readout.value
O=C(c1ccccc1-n1nccn1)N1CCC(F)(F)[C@@H](Oc2ccc3ccccc3n2)C1	Orexin receptor type 2 (Rattus norvegicus, UniProt P56719)	5.38 to 5.88
O=C(c1nccc2[nH]cnc12)N1CCC(F)(F)[C@@H](Oc2ccc3ccccc3n2)C1	Orexin receptor type 2 (Rattus norvegicus, UniProt P56719)	< 5.00
